Assay: Solubility in PBS
Assay type: physicochemical
Settings: aqueous buffer
OBSERVATION_TYPE: solubility

MOLECULE | VALUE_OBSERVED
O=C(NC(c1ccc(Cl)cc1)c1cccc(F)c1)C1CCN(CCOc2ccccc2)CC1 (stereo not drawn) [Compound 41] | < 0.1 µM
O=C(NC(c1ccc(Cl)cc1)c1ccccn1)C1CCN(CCn2ccc(=O)cc2)CC1 (stereo not drawn) [Compound 11] | > 500 µM
O=C(NC(c1ccc(Cl)cc1)c1ccccn1)C1CCN(CCOc2cccnc2)CC1 (stereo not drawn) [Compound 10] | > 500 µM

----------
Experiment: Microsomal stability, mouse
OBSERVATION_TYPE: Microsomal Stability: % remaining after 60 minutes

COMPOUND | VALUE_OBSERVED
CN(CC1CCN(CCOc2ccccc2)CC1)C(c1ccc(Cl)cc1)c1ccccn1 (stereo not drawn) [Compound 79] | m0%
Clc1ccc(C(c2ccccn2)N2CC3(CCN(CCOc4ccccc4)CC3)C2)cc1 (stereo not drawn) | m45%
CC1(C(=O)NC(c2ccc(F)cc2)c2ccccn2)CCN(CCOc2ccccc2C(F)(F)F)CC1 (single isomer, unassigned) [Compound 70b] | m0%

----------
Test: Microsomal stability, mouse
OBSERVATION_TYPE: Microsomal Stability: % remaining after 60 minutes

COMPOUND | VALUE_OBSERVED
O=C(NC(c1cccc(OC(F)(F)F)c1)c1ccccn1)C1CCN(CCOc2ccccc2F)CC1 (stereo not drawn) [Compound 93] | m12%
CC(C1CCN(CCOc2ccccc2)CC1)N(C)C(c1ccc(Cl)cc1)c1ccccn1 (single isomer, unassigned) [Compound 97b] | m3%
O=C(NC(c1ccc(Cl)cc1)c1ccncc1F)C1CCN(CCOc2ccccc2F)CC1 (single isomer, unassigned) [Compound 91b] | m1%

----------
Target: human D2R/β-arrestin (Homo sapiens (Human), UniProt P14416)
Sequence (P14416 whole entry): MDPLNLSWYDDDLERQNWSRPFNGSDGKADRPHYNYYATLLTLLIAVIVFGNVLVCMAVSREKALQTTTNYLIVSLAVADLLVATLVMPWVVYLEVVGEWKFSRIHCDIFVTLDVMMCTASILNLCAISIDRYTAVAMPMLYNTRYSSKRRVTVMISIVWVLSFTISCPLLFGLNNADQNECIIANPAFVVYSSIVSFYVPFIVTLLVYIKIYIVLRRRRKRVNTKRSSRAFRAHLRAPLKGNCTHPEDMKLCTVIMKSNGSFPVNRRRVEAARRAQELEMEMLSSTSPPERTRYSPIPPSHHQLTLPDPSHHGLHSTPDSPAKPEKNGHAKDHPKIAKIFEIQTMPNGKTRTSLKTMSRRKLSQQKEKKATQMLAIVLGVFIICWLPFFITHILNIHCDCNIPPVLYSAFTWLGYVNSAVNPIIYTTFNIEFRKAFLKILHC
Details: read-out: β-arrestin Antagonist
pIC50: −log10 of the molar value.

COMPOUND | pIC50
O=C(NC(c1ccc(F)cc1)c1ccccn1)C1CCN(CCOc2ccccc2C(F)(F)F)CC1 (single isomer, unassigned) [Compound 52a] | 6.00 to 7.00
O=C(NC(c1ccc(Cl)cc1)c1ccccn1)C1CCN(CCOc2cc(F)ccc2F)CC1 (single isomer, unassigned) [Compound 14a] | 5.00 to 6.00
O=C(NC(c1ccc(Cl)cc1)c1ccccn1)C1CCN(CCOc2ccccc2C(F)(F)F)CC1 (single isomer, unassigned) [Compound 6b] | > 7.00
O=C(NC(c1ccc(Cl)cc1)c1ccccc1F)C1CCN(CCOc2ccccc2)CC1 (single isomer, unassigned) [Compound 40a] | 6.00 to 7.00
O=C(NC(c1ccc(Cl)cc1)c1ccccc1F)C1CCN(CCOc2ccccc2)CC1 (single isomer, unassigned) [Compound 40b] | 5.00 to 6.00

----------
Entries and their measured pIC50 follow.
Target: human D2R/β-arrestin (Homo sapiens (Human), UniProt P14416)
Assay: cell-based
Conditions: cAMP Antagonist, CHO-K1 cell line expressing human D2R/β-arrestin; quinpirole used as agonist
pIC50: −log10 of the molar value.

MOLECULE | pIC50
Fc1ccc(C(NCC2CCN(CCOc3ccccc3)CC2)c2ccccn2)cc1 (centres unmarked) [Compound 78] | 5.00 to 6.00
CC1(C(=O)NC(c2ccc(Cl)cc2)c2ccccn2)CCN(CCOc2ccccc2)CC1 (centres unmarked) [Compound 144] | < 4.52
O=C(NC(c1ccc(Cl)cc1)c1ccccn1)C1CCN(CC2COc3ccccc3O2)CC1 (centres unmarked) | 5.00 to 6.00
Clc1ccc(C(NCC2CCN(CCOc3ccccc3)CC2)c2ccccn2)cc1 (single isomer, unassigned) [Compound 114a] | > 7.00
O=C(NC(c1cccc(OC(F)(F)F)c1)c1ccccn1)C1CCN(CCOc2ccccc2F)CC1 (single isomer, unassigned) [Compound 93b] | < 4.52

----------
Assay: Plasma stability, mouse
OBSERVATION_TYPE: Plasma Stability: % remaining after 5 hours (%)

COMPOUND | VALUE_UNITS | VALUE_OBSERVED
O=C(NC(c1ccc(Cl)cc1)c1ccccn1)C1CCN(CCOc2ccc3cccnc3c2)CC1 (centres unmarked) [Compound 16] | % | 94
O=C(NC(c1ccc(Cl)cc1)c1ccccn1)C1CCN(CCCc2ccccc2)CC1 (centres unmarked) [Compound 18] | % | 90.5
O=C(NC(c1ccc(F)cc1)c1ccccn1)C1CCN(CCOc2ccccc2Cl)CC1 (centres unmarked) [Compound 53] | % | 96
COc1cccc(C(NC(=O)C2CCN(CCOc3ccccc3)CC2)c2ccccc2)c1 (centres unmarked) [Compound 146] | % | 96
O=C(NC(c1ccc(Cl)cc1)c1ccccn1)C1CCN(CCOc2ccccc2Cl)CC1 (centres unmarked) [Compound 66] | % | 100
O=C(NC(c1ccc(Cl)cc1)c1cccnc1)C1CCN(CCOc2ccccc2)CC1 (centres unmarked) [Compound 111] | % | 100
O=C(NC(c1cccc(C(F)(F)F)c1)c1ccccn1)C1CCN(CCOc2ccccc2)CC1 (centres unmarked) [Compound 32] | % | 74
COc1cccc(C(NC(=O)C2CCN(CCOc3ccccc3)CC2)c2ccccn2)c1 (centres unmarked) [Compound 35] | % | 98
O=C(NC(c1ccc(Cl)cc1)c1ccccn1)C1CCN(CCOc2cc(F)ccc2F)CC1 (centres unmarked) [Compound 14] | % | 100
O=C(NC(c1cccc(F)c1)c1ccccn1)C1CCN(CCOc2ccccc2)CC1 (centres unmarked) [Compound 26] | % | 92
O=C(NC(c1ccc(Cl)cc1)c1ccccn1)C1CCN(CCOc2ccc3ccc(=O)[nH]c3c2)CC1 (centres unmarked) [Compound 15] | % | 100
O=C(NC(c1ccc(Cl)cc1)c1ccccn1)C1CCN(CCOc2cccc(C(F)(F)F)c2)CC1 (centres unmarked) [Compound 7] | % | 100
O=C(NC(c1ccc(Cl)cc1)c1ccccn1)C1CCN(CCOc2ccc(F)cc2)CC1 (centres unmarked) [Compound 5] | % | 90.5
O=C(NC(c1ccc(Cl)cc1)c1ccccn1)C1CCN(CCOc2ccccc2C(F)(F)F)CC1 (centres unmarked) [Compound 6] | % | 98.8
O=C(NC(c1ccc(Cl)cc1)c1cccc(F)c1)C1CCN(CCOc2ccccc2)CC1 (centres unmarked) [Compound 41] | % | 100

----------
In this section, each of the molecules is paired with its reported EC50.
Molecular target: human D2R/β-arrestin (Homo sapiens (Human), UniProt P14416)
Experiment: Gi/cAMP agonist assay (Lance Ultra cAMP, Forskolin)
Format: cell-based
Settings: CHO-K1 cell line expressing human D2R/β-arrestin

MOLECULE | EC50
O=C(NC(c1ccc(Cl)cc1)c1ccccn1)C1CCN(CCOc2ccccc2F)CC1 (stereo not shown) [Compound 3] | < 100 nM
CN(CC1CCN(CCOc2ccccc2F)CC1)C(c1ccc(Cl)cc1)c1ccccn1 (stereo not shown) [Compound 72] | < 100 nM
O=C(NC1CCN(CCOc2ccccc2)CC1)C(c1ccc(Cl)cc1)c1ccccn1 (stereo not shown) | < 100 nM
c1ccc(OCCN2CCC(CNC(c3ccc4c(c3)OCO4)c3ccccn3)CC2)cc1 (single isomer, unassigned) [Compound 102b] | 1000 to 10000 nM
c1ccc(OCCN2CCC(CNC(c3ccc4c(c3)OCO4)c3ccccn3)CC2)cc1 (single isomer, unassigned) [Compound 102a] | > 30000 nM
O=C(NC(c1ccc(F)cc1)c1ccccn1)C1CCN(CCOc2ccccc2F)CC1 (single isomer, unassigned) [Compound 54b] | 100 to 1000 nM
O=C(NC(c1ccc(Cl)cc1)c1ccccn1)C1CCN(CCOc2cccc(F)c2)CC1 (single isomer, unassigned) [Compound 4b] | > 30000 nM
O=C(NC(c1cccc(OC(F)(F)F)c1)c1ccccn1)C1CCN(CCOc2ccccc2)CC1 (stereo not shown) [Compound 118] | < 100 nM
CN(CC1CCN(CCOc2ccccc2C(F)(F)F)CC1)C(c1ccc(Cl)cc1)c1ccccn1 (stereo not shown) | > 30000 nM
CC(C1CCN(CCOc2ccccc2)CC1)N(C)C(c1ccc(Cl)cc1)c1ccccn1 (single isomer, unassigned) [Compound 97d] | > 30000 nM
CC1(C(=O)NC(c2ccc(Cl)cc2)c2ccccn2)CCN(CCOc2ccccc2)CC1 (stereo not shown) [Compound 144] | < 100 nM
COc1cccc(C(NC(=O)C2CCN(CCOc3ccc(F)cc3F)CC2)c2ccccn2)c1 (single isomer, unassigned) [Compound 145a] | > 30000 nM
Fc1ccc(OCCN2CCC(CNC(c3ccc(Cl)cc3)c3ccccn3)CC2)cc1 (stereo not shown) | > 30000 nM
CC(C)(COc1ccccc1)N1CCC(C(=O)NC(c2ccc(F)cc2)c2ccccn2)CC1 (stereo not shown) | > 30000 nM
O=C(NC(c1ccc(Cl)cc1)c1ccccn1)C1CCN(CC2COc3ccccc3O2)CC1 (stereo not shown) | 1000 to 10000 nM
COc1cccc(C(NC(=O)C2CCN(CCOc3ccccc3C(F)(F)F)CC2)c2ccccn2)c1 (stereo not shown) | > 30000 nM
CN(CC1CCN(CCOc2ccccc2)CC1)C(c1ccc(Cl)cc1)c1ccccn1 (single isomer, unassigned) [Compound 79b] | 100 to 1000 nM
O=C(NC(c1ccc(Cl)cc1)c1ccccn1)C1CCN(CCOc2cccc(Cl)c2)CC1 (single isomer, unassigned) [Compound 1b] | < 100 nM
Fc1ccccc1OCCN1CCC(CNC(c2ccc3c(c2)OCO3)c2ccccn2)CC1 (single isomer, unassigned) [Compound 139b] | 100 to 1000 nM
